Biological target: human PPARgamma (Homo sapiens, UniProt P37231)
Construct: human PPARgamma receptor (amino acids 1152-Y475)
Sequence (P37231 182-477 isoform P37231-2 limits assumed): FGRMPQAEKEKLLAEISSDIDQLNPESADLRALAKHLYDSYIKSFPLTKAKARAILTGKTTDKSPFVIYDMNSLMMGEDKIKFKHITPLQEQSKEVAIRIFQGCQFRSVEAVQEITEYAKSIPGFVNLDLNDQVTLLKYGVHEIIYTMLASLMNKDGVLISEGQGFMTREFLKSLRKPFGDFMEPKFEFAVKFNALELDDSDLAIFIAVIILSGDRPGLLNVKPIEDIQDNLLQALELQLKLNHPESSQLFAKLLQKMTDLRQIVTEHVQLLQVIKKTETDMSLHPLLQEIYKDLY
Experiment: Cellular PPARgamma assay (transiently transfected HEK cells, luciferase reporter)
Settings: GAL4-humanPPARgammaLBD, firefly/Renilla luciferase ratio, 48 h
attribute-measured: EC50 (nM)

Check out these entries, answers already filled in.
[
  {
    "chemical-string": "CCc1oc(-c2ccc3ccccc3c2)nc1COC[C@H]1CCC[C@@H](COC(C)(C)C(=O)O)C1",
    "attribute-measured": "EC50",
    "units": "nM",
    "test-value": 192
  },
  {
    "chemical-string": "CC(C)c1oc(-c2ccc(C(C)(C)C)cc2)nc1COC[C@@H]1CCC[C@H](COC(C)(C)C(=O)O)C1",
    "attribute-measured": "EC50",
    "units": "nM",
    "test-value": 492
  }
]

A = CC(C)c1oc(-c2ccc(C(F)(F)F)cc2)nc1COC[C@@H]1CCC[C@H](COC(C)(C)C(=O)O)C1
B = Cc1oc(-c2ccc(-c3ccccc3)cc2)nc1COC[C@H]1CCC[C@@H](COC(C)(C)C(=O)O)C1
C = CCc1oc(-c2ccc(C)c(C)c2)nc1COC[C@H]1CCC[C@@H](COC(C)(C)C(=O)O)C1
D = CCc1oc(-c2ccc(C(C)(C)C)cc2)nc1COC[C@@H]1CCC[C@H](COC(C)(C)C(=O)O)C1
E = CC(C)c1oc(-c2ccc(C(C)(C)C)cc2)nc1COC[C@H]1CCC[C@@H](COC(C)(C)C(=O)O)C1
Arrange the 5 entries by EC50 so the values rise. List the labels, following the order given in the request.
E, B, C, D, A
(E: 38.3 nM, B: 124 nM, C: 184 nM, D: 266 nM, A: 1880 nM)

I = CCc1oc(-c2ccc(C(F)(F)F)cc2)nc1COC[C@@H]1CCC[C@H](COC(C)(C)C(=O)O)C1
II = CCc1oc(-c2ccc(C)c(C)c2)nc1COC[C@@H]1CCC[C@H](COC(C)(C)C(=O)O)C1
Please indicate which item has the smaller measured EC50: I versus II # reply format: chosen label
II
(II: 324 nM, I: 1560 nM)

a = Cc1oc(-c2ccc(Oc3ccccc3)cc2)nc1COC[C@H]1CCC[C@@H](COC(C)(C)C(=O)O)C1
b = CC(C)c1oc(-c2ccc3ccccc3c2)nc1COC[C@@H]1CCC[C@H](COC(C)(C)C(=O)O)C1
c = CC(C)Cc1ccc(-c2nc(COC[C@H]3CCC[C@@H](COC(C)(C)C(=O)O)C3)c(C(C)C)o2)cc1
Arrange the 3 entries by EC50 so the values rise. List the labels, following the order given in the request.
a, c, b

P = CCc1oc(-c2ccccc2C(F)(F)F)nc1COC[C@@H]1CCC[C@H](COC(C)(C)C(=O)O)C1
Q = Cc1ccc(-c2nc(COC[C@H]3CCC[C@@H](COC(C)(C)C(=O)O)C3)c(C(C)C)o2)cc1C
Please indicate which item has the smaller measured EC50: P versus Q # reply format: chosen label
Q
(Q: 133 nM, P: 2760 nM)

###

Target: human PPARalpha (Homo sapiens, UniProt Q07869)
Construct: human PPARalpha receptor (amino acids S167-Y468)
Sequence (Q07869 167-468): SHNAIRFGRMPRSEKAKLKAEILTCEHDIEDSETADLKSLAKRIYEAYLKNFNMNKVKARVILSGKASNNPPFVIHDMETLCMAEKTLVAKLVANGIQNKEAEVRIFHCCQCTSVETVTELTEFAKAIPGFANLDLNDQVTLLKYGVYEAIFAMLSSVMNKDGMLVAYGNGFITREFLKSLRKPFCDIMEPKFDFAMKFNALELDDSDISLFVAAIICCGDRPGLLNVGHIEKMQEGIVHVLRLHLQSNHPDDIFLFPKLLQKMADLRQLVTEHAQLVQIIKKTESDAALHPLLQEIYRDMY
Test: Cellular PPARalpha assay (stably transfected HEK luciferase reporter cell line)
Conditions: GR-GAL4-humanPPARalpha-LBD, 24 h
Procedure: 1) Determination of EC50 Values of PPAR Agonists in the Cellular PPARalpha Assay The activity of the novel compounds of the present invention was tested as follows The potency of substances which bind to human PPARalpha and activate it in an agonistic manner is analyzed using a stably transfected HEK cell line (HEK=human embryo kidney) which is referred to here as PPARalpha reporter cell line. […] The activity of PPARalpha agonists was determined in a 3-day assay which is described below: […]
pEC50: −log10 of the molar value.
attribute-measured: pEC50

1 = CCc1oc(-c2ccc3ccccc3c2)nc1COC[C@H]1CCC[C@@H](COC(C)(C)C(=O)O)C1
2 = CCc1oc(-c2ccccc2C(F)(F)F)nc1COC[C@@H]1CCC[C@H](COC(C)(C)C(=O)O)C1
3 = Cc1oc(-c2ccc(-c3ccccc3)cc2)nc1COC[C@H]1CCC[C@@H](COC(C)(C)C(=O)O)C1
Give the ascending ranking of the items by reported pEC50. List the labels, following the order given in the request.
3, 2, 1

###

target: human PPARalpha (Homo sapiens); construct: human PPARalpha receptor (amino acids S167-Y468); experiment: Cellular PPARalpha assay (stably transfected HEK luciferase reporter cell line); settings: GR-GAL4-humanPPARalpha-LBD, 24 h
attribute-measured: EC50 (µM)

[
  {
    "compound": "CC(C)c1oc(-c2ccc3ccccc3c2)nc1COC[C@H]1CCC[C@@H](COC(C)(C)C(=O)O)C1",
    "target-system": "human PPARalpha (Homo sapiens)",
    "attribute-measured": "EC50",
    "units": "µM",
    "test-value": 0.0187
  }
]

A = CCc1oc(-c2cccc(C(F)(F)F)c2)nc1COC[C@@H]1CCC[C@H](COC(C)(C)C(=O)O)C1
B = CC(C)c1oc(-c2ccc(C(C)(C)C)cc2)nc1COC[C@H]1CCC[C@@H](COC(C)(C)C(=O)O)C1
C = CC(C)c1oc(-c2ccc3ccccc3c2)nc1COC[C@@H]1CCC[C@H](COC(C)(C)C(=O)O)C1
D = CCc1oc(-c2ccc(C)c(C)c2)nc1COC[C@H]1CCC[C@@H](COC(C)(C)C(=O)O)C1
E = CC(C)c1oc(-c2cccc(C(F)(F)F)c2)nc1COC[C@@H]1CCC[C@H](COC(C)(C)C(=O)O)C1
Arrange the 5 entries by EC50 so the values rise. List the labels, following the order given in the request.
D, B, A, E, C
(D: 0.0016 µM, B: 0.0205 µM, A: 0.032 µM, E: 0.0462 µM, C: 0.0709 µM)

###

molecular target: human PPARalpha (Homo sapiens, UniProt Q07869); construct: human PPARalpha receptor (amino acids S167-Y468); expressed in transfected cells; host or cells: HEK cells (stably transfected, pcDNA3, CMV promoter); experiment: Cellular PPARalpha assay (stably transfected HEK luciferase reporter cell line); type: cell-based; conditions: GR-GAL4-humanPPARalpha-LBD, 24 h
attribute-measured: EC50 (nM)

[
  {
    "compound": "Cc1oc(-c2ccc(Oc3ccccc3)cc2)nc1COC[C@H]1CCC[C@@H](COC(C)(C)C(=O)O)C1 [Example 20]",
    "EC50 (nM)": 149
  },
  {
    "compound": "Cc1oc(-c2ccc(C(C)C)cc2)nc1COCC1CCCC(COC(C)(C)C(=O)O)C1 (stereo not shown) [**]",
    "EC50 (nM)": 1.3
  }
]

P = CC(C)c1oc(-c2cccc(C(F)(F)F)c2)nc1COC[C@H]1CCC[C@@H](COC(C)(C)C(=O)O)C1 [Example 16]
Q = COc1cccc(-c2nc(COC[C@@H]3CCC[C@H](COC(C)(C)C(=O)O)C3)c(C(C)C)o2)c1 [Example 10]
Please indicate which item has the smaller measured EC50: P versus Q # reply format: chosen label
P

###

target: human PPARalpha (Homo sapiens); construct: human PPARalpha receptor (amino acids S167-Y468); experiment: Cellular PPARalpha assay (stably transfected HEK luciferase reporter cell line); conditions: GR-GAL4-humanPPARalpha-LBD, 24 h
pEC50: −log10 of the molar value.
attribute-measured: pEC50

Check out these entries, answers already filled in.
[
  {
    "compound": "CC(C)Cc1ccc(-c2nc(COC[C@H]3CCC[C@@H](COC(C)(C)C(=O)O)C3)c(C(C)C)o2)cc1",
    "pEC50": 7.38
  },
  {
    "compound": "Cc1ccc(-c2nc(COC[C@H]3CCC[C@@H](COC(C)(C)C(=O)O)C3)c(C(C)C)o2)cc1C",
    "pEC50": 8.26
  },
  {
    "compound": "Cc1oc(-c2ccccc2)nc1COCC1CCCC(COC(C)(C)C(=O)O)C1 (stereo not drawn)",
    "pEC50": 7.12
  }
]

P = Cc1ccc(-c2nc(COC[C@@H]3CCC[C@H](COC(C)(C)C(=O)O)C3)c(C(C)C)o2)cc1C
Q = CCc1oc(-c2ccc(C(C)(C)C)cc2)nc1COC[C@@H]1CCC[C@H](COC(C)(C)C(=O)O)C1
R = CCc1oc(-c2ccc(C(F)(F)F)cc2)nc1COC[C@@H]1CCC[C@H](COC(C)(C)C(=O)O)C1
Arrange the 3 entries by pEC50 so the values rise. List the labels, following the order given in the request.
P, Q, R
(P: 7.43, Q: 7.84, R: 8.44)

The reported measurements were obtained from patent US7538131B2.
